Where these numbers come from: the FLAb antibody collection (doi:10.7554/elife.23156)

B1: scFv; the commonest letter at each place (parent)
chain 1: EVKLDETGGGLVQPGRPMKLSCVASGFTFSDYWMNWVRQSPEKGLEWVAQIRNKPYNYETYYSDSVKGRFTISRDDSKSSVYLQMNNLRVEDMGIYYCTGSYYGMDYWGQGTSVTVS
chain 2: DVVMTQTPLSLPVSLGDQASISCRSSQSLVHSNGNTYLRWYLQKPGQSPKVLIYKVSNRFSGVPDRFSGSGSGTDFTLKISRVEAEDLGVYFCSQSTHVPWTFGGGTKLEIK

# Variants of: B1
# procedure text: yeast surface expression (ratio to wild type); higher = more expressed
# settings: format: scFv 4-4-20, heavy + light
# yeast surface expression binned as range 1 = under 0.6, range 2 = from 0.6 up to 0.7, range 3 = 0.7 and over

## Task Form: Item = chain 1 G100F D106K ; Class = ?
## Result range 2

## Task Form: Item = chain 1 M105E ; Class = ?
## Result range 3

## Task Form: Item = chain 1 N35I ; Class = ?
## Result range 2

## Task Form: Item = chain 1 D31S W36C ; Class = ?
## Result range 3

## Task Form: Item = chain 1 Y102L Y107C G109A ; Class = ?
## Result range 1

## Task Form: Item = chain 1 D106R Y107N ; Class = ?
## Result range 1

## Task Form: Item = chain 1 T28A D31M ; Class = ?
## Result range 3

## Task Form: Item = chain 1 Y102V G104K ; Class = ?
## Result range 1

## Task Form: Item = chain 1 W33D ; Class = ?
## Result range 3

## Task Form: Item = chain 1 M105Y D106H W108L ; Class = ?
## Result range 1

## Task Form: Item = chain 1 S30P ; Class = ?
## Result range 3

## Task Form: Item = chain 1 D31Y W33H ; Class = ?
## Result range 1

## Task Form: Item = chain 1 Y107S W108S ; Class = ?
## Result range 1

## Task Form: Item = chain 1 F29A M34V ; Class = ?
## Result range 3

## Task Form: Item = chain 1 S30Y ; Class = ?
## Result range 3

## Task Form: Item = chain 1 Y107S W108D ; Class = ?
## Result range 1

## Task Form: Item = chain 1 S30I M34V ; Class = ?
## Result range 3

## Task Form: Item = chain 1 Y102M Y103T ; Class = ?
## Result range 3

## Task Form: Item = chain 1 Y107K W108A ; Class = ?
## Result range 1

## Task Form: Item = chain 1 M34L N35P ; Class = ?
## Result range 3

## Task Form: Item = chain 1 T28N N35V ; Class = ?
## Result range 2

## Task Form: Item = chain 1 G104N Y107A ; Class = ?
## Result range 3

## Task Form: Item = chain 1 F29R S30L ; Class = ?
## Result range 2

## Task Form: Item = chain 1 T28Q ; Class = ?
## Result range 3

## Task Form: Item = chain 1 T28S Y32S ; Class = ?
## Result range 3

## Task Form: Item = chain 1 D31M M34K ; Class = ?
## Result range 1

## Task Form: Item = chain 1 T28P V37S ; Class = ?
## Result range 3

## Task Form: Item = chain 1 S30N W36D ; Class = ?
## Result range 1

## Task Form: Item = chain 1 S101M G109W ; Class = ?
## Result range 1

## Task Form: Item = chain 1 D31N N35S V37A ; Class = ?
## Result range 2

## Task Form: Item = chain 1 G100P W108M ; Class = ?
## Result range 1

## Task Form: Item = chain 1 Y103N G104T Y107K ; Class = ?
## Result range 2

## Task Form: Item = chain 1 Y103C G109D ; Class = ?
## Result range 1

## Task Form: Item = chain 1 W33T N35D V37W ; Class = ?
## Result range 1

## Task Form: Item = chain 1 S101V Y102V ; Class = ?
## Result range 1

## Task Form: Item = chain 1 Y102W Y103W ; Class = ?
## Result range 2

## Task Form: Item = chain 1 G100W W108V ; Class = ?
## Result range 1

## Task Form: Item = chain 1 M105D D106G ; Class = ?
## Result range 1

## Task Form: Item = chain 1 D31S M34R ; Class = ?
## Result range 1

## Task Form: Item = chain 1 S101F G104Q ; Class = ?
## Result range 1

## Task Form: Item = chain 1 F29C N35I ; Class = ?
## Result range 3
